- assayProcedure: Apparent volume of distribution during terminal phase in NSG mouse at 10 mg/kg, ip
- Format: ADME, organism-based
- measurementContext: in vivo, read-out: Vz/F
endpointLabel: Vd/F (L/kg)
Give bare numbers, in L/kg.

q: # get_value(readout='Vd/F', item= "COc1cc(C(=O)c2nc(-c3ccc(C)c(O)c3)ccc2F)cc(OC)c1OC" )
a: 12.3

====

- assayProcedure: Half life in NSG mouse at 10 mg/kg, ip
- Assay type: ADME, organism-based
- measurementContext: in vivo
endpointLabel: half-life (h)
Answers are plain numbers, in h.

q: I'd like to know its half-life. The compound in question is "COc1cc(C(=O)c2nc(-c3ccc(C)c(O)c3)ccc2F)cc(OC)c1OC"
a: 4.39
